Recorded pKd for the following binders
Biological target: T1, Rb^P R668C (human, UniProt P06400 380-788, R668C)
T1 construct: also called variant 51
T1 sequence (looked up): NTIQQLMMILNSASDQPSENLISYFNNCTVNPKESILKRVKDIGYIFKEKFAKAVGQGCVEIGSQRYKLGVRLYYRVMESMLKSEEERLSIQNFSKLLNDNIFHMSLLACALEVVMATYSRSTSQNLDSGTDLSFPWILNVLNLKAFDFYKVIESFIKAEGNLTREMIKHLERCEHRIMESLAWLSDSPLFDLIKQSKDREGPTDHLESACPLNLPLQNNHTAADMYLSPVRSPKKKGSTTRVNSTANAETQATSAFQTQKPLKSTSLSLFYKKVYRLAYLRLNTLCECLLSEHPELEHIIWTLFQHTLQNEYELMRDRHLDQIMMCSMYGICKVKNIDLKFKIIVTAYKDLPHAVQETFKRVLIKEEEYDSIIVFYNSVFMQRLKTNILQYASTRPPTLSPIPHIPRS
Experiment: fluorescence polarisation; 25 °C; unlabeled Rb^P titrated against 1.5 nM TMR-E2F1^TD or 7.5 nM TMR-E7^LxCxE; 25 mM Tris pH 8.0, 200 mM NaCl, 1 mM DTT, 0.1% Tween-20; 2 min incubation; quadratic fit; apparent Kd for the variants, Kd for WT
Details: both partners purified
No end group written: not given here. TMR = tetramethyl rhodamine dye
Note on pKd: it is the negative log10 of concentration, concentration in mol/L.

- binder: "DLYCYEQLN (also: TMR label, position not given here, source: synthetic peptide, bought: GenScript) [TMR-E7^LxCxE, LxCxE peptide of the E7 oncoprotein from HPV]"
  pKd: 8.52

// moving on: another record for pKd
Entry {TMR}-GEGIRDLFDCDFGDLTPLD (also called E2F^TD; source: synthetic peptide, bought: GenScript) [TMR-E2F1^TD, peptide of the E2F1 transactivation domain] has what pKd? 7.92
